# target-or-system: Urease subunit alpha/Urease subunit beta (Helicobacter pylori (strain ATCC 700392 / 26695) (Campylobacterpylori))
# Sequence (P69996 whole entry): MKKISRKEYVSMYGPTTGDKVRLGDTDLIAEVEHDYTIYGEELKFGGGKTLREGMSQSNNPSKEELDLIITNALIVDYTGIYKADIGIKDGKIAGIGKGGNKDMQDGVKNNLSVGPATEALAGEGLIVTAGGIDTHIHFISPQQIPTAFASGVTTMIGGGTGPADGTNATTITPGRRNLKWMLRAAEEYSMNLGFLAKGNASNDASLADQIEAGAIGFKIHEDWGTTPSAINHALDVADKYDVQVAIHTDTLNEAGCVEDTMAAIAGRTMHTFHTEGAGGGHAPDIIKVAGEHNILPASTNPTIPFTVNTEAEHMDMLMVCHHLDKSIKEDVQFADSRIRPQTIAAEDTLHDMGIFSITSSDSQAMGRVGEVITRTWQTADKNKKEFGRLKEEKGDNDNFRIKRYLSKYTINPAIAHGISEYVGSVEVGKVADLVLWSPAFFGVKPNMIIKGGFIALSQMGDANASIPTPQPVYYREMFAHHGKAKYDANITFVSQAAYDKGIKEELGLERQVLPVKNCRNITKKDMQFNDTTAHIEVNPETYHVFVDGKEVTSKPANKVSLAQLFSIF
# Sequence (P14916 whole entry, further chain): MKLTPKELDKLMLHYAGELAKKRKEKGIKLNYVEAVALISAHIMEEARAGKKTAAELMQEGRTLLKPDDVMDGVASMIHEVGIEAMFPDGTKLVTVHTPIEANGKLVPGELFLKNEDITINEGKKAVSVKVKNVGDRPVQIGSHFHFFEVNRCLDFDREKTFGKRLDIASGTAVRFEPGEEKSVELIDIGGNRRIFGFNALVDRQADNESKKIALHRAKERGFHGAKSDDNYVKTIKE
# assay-text: Inhibition of Helicobacter pylori ATCC 43504 urease assessed as reduction in ammonia production using urea as substrate preincubated for 1.5 hrs under cell free condition by indophenol method
# Type: protein-complex assay, Helicobacter pylori NCTC 11637 = CCUG 17874 = ATCC 43504
pIC50: −log10 of the molar value.
pIC50 values by entry
assay-readout: pIC50

- smiles-str: "Cc1cc(C)cc(OCC(=O)NO)c1"
  assay-readout: "pIC50"
  experimental-value: 4.38
- smiles-str: "O=C(COc1ccccc1F)NO"
  assay-readout: "pIC50"
  experimental-value: 3.92
- smiles-str: "Cc1ccc(OCCC(=O)NO)cc1"
  assay-readout: "pIC50"
  experimental-value: 5.86
- smiles-str: "O=C(CCOc1cc(F)cc(F)c1)NO"
  assay-readout: "pIC50"
  experimental-value: 5.29
- smiles-str: "O=C(CCOc1cccc(Cl)c1)NO"
  assay-readout: "pIC50"
  experimental-value: 5.91
- smiles-str: "Cc1cc(C)cc(OCCC(=O)NO)c1"
  assay-readout: "pIC50"
  experimental-value: 4.98
- smiles-str: "O=C(COc1ccc(Cl)c(Cl)c1)NO"
  assay-readout: "pIC50"
  experimental-value: 6.28
- smiles-str: "O=C(CCOc1cccc(F)c1)NO"
  assay-readout: "pIC50"
  experimental-value: 5.69
- smiles-str: "Cc1ccccc1OCC(=O)NO"
  assay-readout: "pIC50"
  experimental-value: 3.81
